These data points were gathered from patent US20060189634A1.

test system: Plasmopara viticola; experiment: Activity against peronospora of grapevines caused by Plasmopara viticola (protective spray on potted vines); type: in vivo; details: individual active compound, 4 ppm in the spray liquor; grapevine leaves cv. Müller-Thurgau; untreated control 81% infection

COMPOUND | Efficacy in % of the untreated control
CC1CCN(c2c(-c3c(F)cccc3Cl)c(Cl)nc3ncnn23)CC1 [Comparison A] | 13%
CC1CCN(c2c(-c3c(F)cc(F)cc3F)c(Cl)nc3ncnn23)CC1 [I] | 51%
N#Cc1sc2c(=O)c3ccccc3c(=O)c=2sc1C#N [II (dithianon)] | 13%
C[C@H](Nc1c(-c2c(F)cc(F)cc2F)c(Cl)nc2ncnn12)C(F)(F)F [Comparison B] | 13%
